The measured values listed here are drawn from the RNAGym collection of RNA variant scans (doi:10.7554/elife.90254).

Catalogue of self-cleavage values
B1: LINE1-full (parent)
chain: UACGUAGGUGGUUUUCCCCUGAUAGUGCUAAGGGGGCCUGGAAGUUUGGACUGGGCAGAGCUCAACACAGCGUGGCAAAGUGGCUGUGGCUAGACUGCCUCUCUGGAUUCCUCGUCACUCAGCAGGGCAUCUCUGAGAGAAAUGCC

# Variants of: B1
# Experimental Details: self-cleavage, relative activity (ratio to wild type); higher = more cleavage; in vitro, sequencing; the parent is a self-cleaving ribozyme

Example entries begin here.
Exercise: # lookup: self-cleavage of C103A U112C
Key: 1.01

Exercise: Param item: U115C G137A
Key: 1.15

Exercise: Param item: A64G A79G
Key: 0.24

Exercise: Param item: U73A U108C
Key: 2.23

Exercise: Param item: C3U U143G
Key: 0

Shifting focus to the variant that follows.
Exercise: # lookup: self-cleavage of A57U U96C
Key: 0.06
